From: paper PMC10404814

# target_or_system: Kv10.1 (Homo sapiens, UniProt O95259)
# Sequence (O95259 whole entry): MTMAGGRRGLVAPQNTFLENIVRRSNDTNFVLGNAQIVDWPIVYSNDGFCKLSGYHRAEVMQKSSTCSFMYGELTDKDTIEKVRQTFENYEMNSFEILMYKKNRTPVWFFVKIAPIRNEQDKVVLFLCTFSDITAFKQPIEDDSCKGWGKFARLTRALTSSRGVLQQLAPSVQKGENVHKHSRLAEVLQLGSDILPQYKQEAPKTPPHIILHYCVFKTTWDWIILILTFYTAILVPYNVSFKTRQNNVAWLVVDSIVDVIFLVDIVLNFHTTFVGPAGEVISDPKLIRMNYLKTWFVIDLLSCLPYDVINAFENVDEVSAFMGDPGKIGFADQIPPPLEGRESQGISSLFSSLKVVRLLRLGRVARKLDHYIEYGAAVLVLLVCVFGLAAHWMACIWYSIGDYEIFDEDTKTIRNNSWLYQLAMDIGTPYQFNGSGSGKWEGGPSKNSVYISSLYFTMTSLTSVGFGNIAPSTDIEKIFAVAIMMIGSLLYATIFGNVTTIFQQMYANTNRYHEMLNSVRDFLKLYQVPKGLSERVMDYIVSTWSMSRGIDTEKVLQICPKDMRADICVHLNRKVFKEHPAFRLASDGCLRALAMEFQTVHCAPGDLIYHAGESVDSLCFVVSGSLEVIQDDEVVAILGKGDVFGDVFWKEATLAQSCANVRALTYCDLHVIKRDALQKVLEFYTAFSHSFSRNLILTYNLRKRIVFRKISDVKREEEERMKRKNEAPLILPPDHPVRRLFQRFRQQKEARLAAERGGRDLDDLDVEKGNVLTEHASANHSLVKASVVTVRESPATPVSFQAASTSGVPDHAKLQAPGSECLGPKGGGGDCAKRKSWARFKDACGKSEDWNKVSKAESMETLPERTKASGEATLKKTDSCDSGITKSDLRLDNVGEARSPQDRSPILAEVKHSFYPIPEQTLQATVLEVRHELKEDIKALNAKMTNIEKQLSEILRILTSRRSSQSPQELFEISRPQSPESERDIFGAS
# assay_procedure: whole-cell voltage-clamp of HEK293 cells stably expressing human Kv10.[…]
readout: IC50 (µM)
Write it as a number; the unit µM goes unstated.

CNCCC(Oc1ccc(C(F)(F)F)cc1)c1ccccc1 (centres unmarked) | 11.2

Entry Clc1ccc(COC(Cn2ccnc2)c2ccc(Cl)cc2Cl)c(Cl)c1 (centres unmarked) [MN, miconazole nitrate] : reported IC50 = ?
23.6

* * *

# target_or_system: Kv10.1 (Homo sapiens, UniProt O95259)
# assay_procedure: whole-cell voltage-clamp of HEK293 cells stably expressing human Kv10.[…] (activator); no effect in HEK-WT
readout: EC50
Quick note: unit goes after the number.

Entry c1ccc(-c2nnn[nH]2)c(Nc2cccc3c2CCCC3)c1 : reported EC50 = ?
36.5 µM
